# assay_procedure: Human HepG2 cell viability assay in 384 well format
# Type: toxicity, cell-based
# Design: dose 125 nL, time 70.5 hour; concentration not given beside the values
# assay_context: HepG2 cells, read-out: Inhibition
Measured cytotoxicity at 70.5 h values are reported for all entries that follow.
Output spec: scalar in %, unitless text.

CCOCC1CN(C(=O)C2=CCCC2)Cc2cnn(C)c21 (stereo not drawn) : -14.7
CC(C)Oc1ncccc1CNC(=O)NC1CCOc2ccccc21 (stereo not drawn) : 8.32

Okay, now this compound:
Look up and report measured cytotoxicity at 70.5 h for this entry: Cc1nc(C2CCCN2C(=O)CCc2ccc(F)cc2)ncc1C(N)=O (stereo not drawn)
-10.3

* * *

Measured cytotoxicity at 70.5 h values are reported for all entries that follow.
# assay_procedure: Human HepG2 cell viability assay in 384 well format
# Assay type: toxicity, cell-based
# Design: dose 125 nL, time 70.5 hour; concentration not given beside the values
# assay_context: HepG2 cells, read-out: Inhibition
Output spec: scalar in %, unitless text.

O=C(CN1CCCCC1)N1CCC(c2cc(=O)n3c(n2)CCCCC3)C1 (configuration not stated) : -1.74

Look up and report measured cytotoxicity at 70.5 h for this entry: CN1CC2(CCN(Cc3cccc(C#N)c3)CC2)CC1=O
20.6

Look up and report measured cytotoxicity at 70.5 h for this entry: CC(NC(=O)NCCNc1cccc(F)c1C#N)c1cccs1 (configuration not stated)
-4.54

Look up and report measured cytotoxicity at 70.5 h for this entry: CCCc1noc(CCC(=O)N2CCCC2c2noc(C3CC3)n2)n1 (configuration not stated)
-16.9

Look up and report measured cytotoxicity at 70.5 h for this entry: CN(Cc1cccnc1)c1nc(-c2ccccn2)nc2c1CCNCC2
-5.18

Look up and report measured cytotoxicity at 70.5 h for this entry: CCc1n[nH]c(C2CN(C(=O)c3cnns3)CCO2)n1 (configuration not stated)
2.09

Look up and report measured cytotoxicity at 70.5 h for this entry: COC(=O)c1ccoc1CN(C1CC1)C1CCS(=O)(=O)C1 (configuration not stated)
-0.821

* * *

Measured cytotoxicity at 70.5 h values are reported for all entries that follow.
# assay_procedure: Human HepG2 cell viability assay in 384 well format
# Format: toxicity, cell-based
# Design: dose 125 nL, time 70.5 hour; concentration not given beside the values
# assay_context: HepG2 cells, read-out: Inhibition
Output spec: scalar in %, unitless text.

A selection of reference data follows.
O=C1NCC2(CCCN(Cc3ccncc3)C2)Oc2ccccc21 (configuration not stated) : -8.47
CC(Cn1cccn1)NC(=O)NCCCN1CCc2ccccc21 (configuration not stated) : -0.512
CC(C)(C)c1ncc2c(n1)CN(C(=O)C(C)(C)n1cccc1)C2 : -6.39
Cc1cccnc1CC(C)Nc1ncc(C)c(N(C)C)n1 (configuration not stated) : 2.64
Cc1cccc(NCC(=O)NC2(C#N)CCCC2)c1C(=O)N1CCCC1 : 2.28

Look up and report measured cytotoxicity at 70.5 h for this entry: CC(C)c1nn(C)c(Cl)c1CNCCn1cccn1
8.25

Look up and report measured cytotoxicity at 70.5 h for this entry: Cc1cc(Cl)ccc1C(=O)C1CCCN(Cc2cnc(N(C)C)s2)C1 (configuration not stated)
-5.77

Look up and report measured cytotoxicity at 70.5 h for this entry: CCOCCn1c(=O)[nH]c2cc(C(=O)N(C)Cc3cnn(C)c3)ccc21
-4.48

Look up and report measured cytotoxicity at 70.5 h for this entry: COc1ccccc1-c1cc(C(=O)N2CCCC2)c2cnn(C)c2n1
-5.55

Look up and report measured cytotoxicity at 70.5 h for this entry: Cc1nn(C)c2c(=O)n(CC(=O)Nc3cc(Cl)cc(Cl)c3)nnc12
-0.624

Look up and report measured cytotoxicity at 70.5 h for this entry: COc1ccc(CN2CCC(c3nccnc3-n3ccnc3)CC2)cc1
-5.25

Look up and report measured cytotoxicity at 70.5 h for this entry: CC(C)n1[nH]c(=O)c2c1NC(=O)CC2c1ccc(C#N)cc1 (configuration not stated)
18.7

Look up and report measured cytotoxicity at 70.5 h for this entry: Cc1nc(CN2C(=O)COC3(CCN(C)CC3)C2C)cs1 (configuration not stated)
4.23

Look up and report measured cytotoxicity at 70.5 h for this entry: c1ccc(CCCn2cc(-c3nc(CN4CCOCC4)no3)nn2)cc1
-15

Look up and report measured cytotoxicity at 70.5 h for this entry: CCN1CCC(NC(=O)CN2CCc3c(ncn3C)C2)CC1
2.11

Look up and report measured cytotoxicity at 70.5 h for this entry: CCn1cc(CN2CCC(c3ncc(Cl)cc3S(C)(=O)=O)CC2)c(C)n1
0.165

Look up and report measured cytotoxicity at 70.5 h for this entry: CCc1c(C)nn(CCNC(=O)Cc2csc(C)n2)c1C
-6.58

Look up and report measured cytotoxicity at 70.5 h for this entry: CCCN1CC2(CCN(C)CC2)CC1C(=O)NCCn1nc(C)nc1C (configuration not stated)
6.07

Look up and report measured cytotoxicity at 70.5 h for this entry: CC(C)(C)c1noc(CN2CCCCC2Cn2cncn2)n1 (configuration not stated)
-0.0275

Look up and report measured cytotoxicity at 70.5 h for this entry: Cc1cnn(C(C)C2CC2)c1NC(=O)c1ccco1 (configuration not stated)
-3.4

Look up and report measured cytotoxicity at 70.5 h for this entry: Cc1nc(C(C)C)sc1C(=O)N1CCN(C2CCSCC2)CC1
9.03

Look up and report measured cytotoxicity at 70.5 h for this entry: COc1ccc(C2=CNC(C(F)(F)F)=CC2N)cc1 (configuration not stated)
-0.00247

Look up and report measured cytotoxicity at 70.5 h for this entry: CN(CCCc1cnn(C)c1)C(=O)Nc1cccc(C#N)c1
-6.3

* * *

# assay_procedure: Human HepG2 cell viability assay in 384 well format
# Type: toxicity, cell-based
# Set-up: dose 125 nL, time 70.5 hour; concentration not given beside the values
# assay_context: HepG2 cells, read-out: Inhibition
Measured cytotoxicity at 70.5 h values are reported for all entries that follow.
Output spec: scalar in %, unitless text.

A selection of reference data follows.
CC(=O)NCCC(=O)NC(C)c1sc(-c2ccccc2F)nc1C (configuration not stated) : -5.17
Cc1cc2nc(C(C)C)cc(N(C)CC3CCN(C(C)C)C3)n2n1 (configuration not stated) : 28
CCn1cnnc1CNC(=O)NC(C)c1ccc(Cl)s1 (configuration not stated) : -0.949
O=C(c1ccncc1)N1CC2(CCNCC2)c2cc(Cl)ccc21 : -6.69
COCC(=O)N1Cc2cnc(Cc3ccc(OC)cc3)nc2C1 : 1.24

Look up and report measured cytotoxicity at 70.5 h for this entry: CN(C)CCN1C(=O)CCC12CCN(Cc1cccs1)CC2
-11.7

Look up and report measured cytotoxicity at 70.5 h for this entry: Cc1n[nH]c(C)c1CCC(=O)N(C)Cc1cn[nH]c1-c1ccc(F)cc1
5.04

* * *

# assay_procedure: Human HepG2 cell viability assay in 384 well format
# Type: toxicity, cell-based
# Design: dose 125 nL, time 70.5 hour; concentration not given beside the values
# assay_context: HepG2 cells, read-out: Inhibition
property_measured: cytotoxicity at 70.5 h

A selection of reference data follows.
CC(C)c1nnc2n1CCN(C(=O)c1ccc(OCC3CC3)nc1)C2 : 11%
CCSCc1ccnc(NC(=O)C2CCCO2)c1 (centres undefined) : -2.71%
O=S(=O)(CCNCc1cccc2c1OCCO2)N1CCOCC1 : 5.04%

Okay, now this compound:
Look up and report measured cytotoxicity at 70.5 h for this entry: CCC(C)Sc1ncc(-c2c(C#N)c(N)nc3c2COCC3)cn1 (centres undefined)
6.03%

* * *

# assay_procedure: Human HepG2 cell viability assay in 384 well format
# Assay type: toxicity, cell-based
# Design: dose 125 nL, time 70.5 hour; concentration not given beside the values
# assay_context: HepG2 cells, read-out: Inhibition
Measured cytotoxicity at 70.5 h values are reported for all entries that follow.
Output spec: scalar in %, unitless text.

COCCN1CCC(CNC(=O)C2(c3cccc(C)c3)CC2)C1 (stereo not drawn) : 17.2
NC(=O)CC1CCN(C(=O)NCc2ccccc2-n2cccn2)CC1 : -1.19
CNC(=O)CCc1cccc(OC2CCCC2)c1 : -12.2
O=C1NC2(CCN(CC3CC3)CC2)CC1c1ccccc1 (stereo not drawn) : -1.19
Cc1nc2cc(=O)[nH]n2c(C)c1CC(=O)Nc1ccc2ccccc2n1 : -6.2
O=C(O)Cn1nc(C2CC2)c2c(-c3cccs3)ccnc21 : 25.1

Look up and report measured cytotoxicity at 70.5 h for this entry: O=S1(=O)CCC(n2cc(C3=CCN(CCc4ccccc4)CC3)cn2)C1 (stereo not drawn)
-2.15

Look up and report measured cytotoxicity at 70.5 h for this entry: Cc1nnc2n1CCN(Cc1csc(COc3ccccc3)n1)C2
-7.26

Look up and report measured cytotoxicity at 70.5 h for this entry: COCCN1CCN(CC(=O)NC2(C#N)CCCC2)CC1C (stereo not drawn)
7.99

Look up and report measured cytotoxicity at 70.5 h for this entry: C[C@@H]1CN(C(=O)c2cn(CCN3CCCCC3)nn2)C[C@H](C)O1
-0.236

Look up and report measured cytotoxicity at 70.5 h for this entry: Cc1cnn(CCNCC(O)COc2cccc(C(F)(F)F)c2)c1 (stereo not drawn)
0.0235

Look up and report measured cytotoxicity at 70.5 h for this entry: CCOCC1CN(C(=O)[C@H]2CCCO2)Cc2nnn(CC3CC3)c21 (stereo partly drawn)
-1.02

Look up and report measured cytotoxicity at 70.5 h for this entry: CCC(=O)Nc1ccc(OCC(=O)N(C)C(C)c2ccon2)cc1 (stereo not drawn)
-18.6

Measured values drawn from ChEMBL document CHEMBL3507680 for this set.
